B1: TRIM63 (parent)
chain: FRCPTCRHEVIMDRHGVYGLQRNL

Variants of: B1
Assay: protein stability index of a GFP-peptide fusion (GPS, HEK-293T) (PSI 1-6); higher = more stable;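 further: lentivirally expressed fusions sorted by FACS into six bins by GFP to DsRed ratio, PSI derived from sequencing read proportions per bin multiplied by bin number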
Conditions: c terminus: a fixed tail appended
Please go through the items and note down their protein stability index.
Answers are plain numbers.

Answered examples (5):
FRCPTCRHEVICDRHGVYGLQRNL
2.02
FRCSTCRHEVIMDRHGVYGLQRNL
2.93
FRCPTCRHEVIMDRHGVYGEQRNL
2.27
FRCPTCRHEVIMDRHGVYGLQHNL
2.17
FRCPTCRHEEIMDRHGVYGLQRNL
1.91

Would you mind giving protein stability index for every variant in the list below?
1. FRCPTCFHEVIMDRHGVYGLQRNL
2. FMCPTCRHEVIMDRHGVYGLQRNL
3. FRCPTCRHEVIMDRHGVYGLARNL
4. FRCPRCRHEVIMDRHGVYGLQRNL
5. FRCPTCRHEVIMDRHAVYGLQRNL
6. FRVPTCRHEVIMDRHGVYGLQRNL

Result:
2.42
2.58
1.66
1.77
2.15
2.12

I need protein stability index for every entry listed below, if you could help.
1. FRCPTCRHEVIMDRHGVFGLQRNL
2. VRCPTCRHEVIMDRHGVYGLQRNL

Result:
1: 2.13; 2: 2.15

Please report protein stability index for every entry that follows.
1. FRCPTCRHEVIMDRHGVAGLQRNL
2. FRCPTCRHEVSMDRHGVYGLQRNL
3. FRCPTCRHEVYMDRHGVYGLQRNL
4. FRIPTCRHEVIMDRHGVYGLQRNL
5. FRCPTCRAEVIMDRHGVYGLQRNL
6. FRCPTCRHEVIMTRHGVYGLQRNL

Result:
1. 1.98
2. 2.52
3. 1.74
4. 2.6
5. 2.6
6. 1.9

Please go through the list and note protein stability index for each variant.
1. FRCPTCRHEVIMDRHGVYGLQQNL
2. FRCPTCRHEQIMDRHGVYGLQRNL
3. FRCPWCRHEVIMDRHGVYGLQRNL
4. FRCPTCRHEVIMDRRGVYGLQRNL
5. FRCPTCRHEVIMDRHGVYGLQENL
6. FRCPTCRHEVIMDRHVVYGLQRNL
7. FRCPTIRHEVIMDRHGVYGLQRNL
8. FRCPTCRHEVIMDRHGRYGLQRNL

Result:
1: 2.24; 2: 1.8; 3: 2.17; 4: 1.48; 5: 3.83; 6: 1.69; 7: 1.89; 8: 1.53
